Target: T1, human galectin-10 as coated in ELISA (soluble galectin-10; tag not given) (human, UniProt Q05315 1-142, limits assumed)
T1 construct: also called coated galectin-10; Gal10
T1 sequence: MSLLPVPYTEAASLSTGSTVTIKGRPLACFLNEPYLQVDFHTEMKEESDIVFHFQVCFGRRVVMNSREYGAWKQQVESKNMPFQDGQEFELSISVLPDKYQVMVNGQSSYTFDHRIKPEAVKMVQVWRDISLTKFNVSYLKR
Assay: ELISA, scFv periplasmic extract on coated soluble galectin-10, anti-Myc-HRP
Exercise: state measured ELISA binding (OD values) for each of the binders provided.
Record the value in OD, omitting the unit from your answer.

Entry scFv 4E08 (periplasmic extract, Myc-tagged) (scFv, not shown: small tags and cut ends, also called 4E8) scFv: QVQRQESGPGLVKPSQTLSLTCTVSGGSITTSYYAWSWIRQPPGKGLEWMGVIASDGSTYYSPSLKSRTSISRDTSKNQFSLQLSSVTPEDTAVYYCALYIRGSSWSGWSAYDYWGQGTQVTVSSGGGGSGGGGSGGGGSQPVLNQPSAVSVSLGQTARITCQGGNFGYYYGSWYQQKPGQAPVLVIYKDSERPSGIPERFSGSSSGGTATLTISRAQAEDEADYYCQSADSSDNPVFGGGTHLTVL ; ELISA binding (OD values) = 3.6

Entry scFv 6B06 (periplasmic extract, Myc-tagged) (scFv, not shown: small tags and cut ends) scFv: QVQRQESGPGLVKPSQTLSLTCTVSGGSITTNYYSWSWIRQPPGKGLEWIGYIAYSGSTSYSPSLKSRTSISRDTSNNQFSLQLSSVTPEDTAVYYCARSRSSPTTFGMDYWGKGTLVTVSSGGGGSGGGGSGGGGSSSALTQPSAVSVSLGQTARITCQGGNFGRYYVSWYTQKPGQAPVLVIYQDSERPTGIPERFSGSSSGDTATLTISGAQAEDEADYYCQSGTSSDNIVFGGGTHLTVL ; ELISA binding (OD values) = 3.7

Entry scFv 1D11 (periplasmic extract, Myc-tagged) (scFv, not shown: small tags and cut ends, also called 1D011) scFv: QVQLVESGGGLVQPGGSLRLSCAASGFTFDDYAMSWVRQAPGKGLEWVSGISWNGGSTYYAESMKGRFTISRDNAKNTLYLQMNSLKSEDTAVYYCAKDRNLGYRLGYPYDYWGQGTQVTVSSGGGGSGGGGSGGGGSQSVLTQPPSVSGSPGETVTISCAGTSSDVGYGNYVSWYQQLPGMAPRLLIYEVNKRASGITDRFSGSKSGNTASLTISGLQSEDEGDYYCASYRSSNNAVFGGGTHLTVL ; ELISA binding (OD values) = 3.3

Entry scFv 1C09 (periplasmic extract, Myc-tagged) (scFv, not shown: small tags and cut ends, also called 1C9) scFv: QVQLVESGPGLVKPSQTLSLTCTVSGGSITTNSYYWSWIRQPPGKGLEWMGAIAYSGSTYYSPSLKSRTSISRDTSKNQFTLHLSSVTPEDTAVYYCARRPNWYRALDAWGQGTLVTVSSGGGGSGGGGSGGGGSNFMLTQPSAVSVSLGQTARITCQGANLGRYYGIWYQQKPGQAPVQVIYGDSNRPSGIPERFSGSSSGGTATLTISGAQAEDEADYYCQSYESSTSPVFGGGTHLTVL ; ELISA binding (OD values) = 3.5

Entry scFv 2C07 (periplasmic extract, Myc-tagged) (scFv, not shown: small tags and cut ends) scFv: ELQLVESGGGLVQPGGSLRLSCAASGFTFSSYAMSWVRQAPGKGLEWVSNINSGGGSTGYADSVKGRFTISRDNAKNTLYLQMNSLKPEDMAVYYCAKYLRTYYPNAAFGMDYWGKGTLVTVSSGGGGSGGGGSGGGGSQAVLTQPSAVSVSLGQTARITCQGGNFGRYYASWYQQKPGQAPVLVIYRDSERPSGIPERFSGSSSGDTATLTISGAQAEDEADYYCQSGRSSDNAVFGGGTHLTGL ; ELISA binding (OD values) = 3.6

Entry scFv 2F09 (periplasmic extract, Myc-tagged) (scFv, not shown: small tags and cut ends) scFv: QVQVQESGPGLVKPSQTLSLTCTVSGGSITTNYFYWSWIRQSPGKGLEWIGAIAYSGRTYYSPSLKSRTSISRDTSNNQFTLQLSSVTPEDTAVYYCARGPKGLASYYDYWGQGTQVTVSSGGGGSGGGGSGGGGSSSALTQPSAVSVSLGQTARITCQGGNFGYYYVSWYQQKPGQAPVLVIYRDSGRPSGIPERFSGSSSGDTATLTISGAQAEDEADYYCQSGSSSDNTVFGGGTHLTVL ; ELISA binding (OD values) = 3.6
